Readings of IC50 for the listed compounds
# TEST SUMMARY: In Vitro CaMKIIδ Activity Assay: The inhibition of CaMKII activity was evaluated using a coupled assay measuring ADP released following ATP hydrolysis and phosphor-transfer to the peptide substrate AC3 (KKALHRQETVDAL; SEQ ID NO: 1) (1). A full length, C-terminal His/Gln tagged CaMKIIδ construct was used.

[
  {
    "MOLECULAR STRING": "c1cc(-c2ccnc3[nH]c4ccccc4c23)nc(N2CCNCC2)c1",
    "IC50": "< 0.1 µM"
  }
]

Query: Tell me the measured IC50 of `COc1ccc2c(c1)[nH]c1nccc(-c3cccc(NCCN)c3)c12` , please.
Response: < 0.1 µM

Query: Could you tell me which IC50 is on file for `NCCCNc1cccc(-c2ccnc3[nH]c4ccccc4c23)c1` ?
Response: < 0.1 µM

Query: // query IC50 value for entry `NCCNc1cccc(-c2ccnc3[nH]c4ccccc4c23)c1`
Response: < 0.1 µM

Query: # query: IC50 of entry `Cc1ccc2c(c1)[nH]c1nccc(-c3cccc(NCCN)c3)c12`
Response: < 0.1 µM
